I'd be grateful if you could share measured pIC50 for these entries.
Target: p53-MDM2 interaction (human MDM2 protein, amino acids 2-188) (Homo sapiens, UniProt Q00987)
Construct: human MDM2 protein (amino acids 2-188); made in house
Sequence (Q00987 2-188): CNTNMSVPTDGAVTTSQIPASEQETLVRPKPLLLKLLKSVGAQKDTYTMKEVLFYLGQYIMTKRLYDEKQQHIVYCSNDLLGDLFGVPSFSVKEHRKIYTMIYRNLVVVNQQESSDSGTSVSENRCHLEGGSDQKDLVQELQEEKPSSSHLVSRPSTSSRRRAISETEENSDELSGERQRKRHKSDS
Experiment: p53-MDM2 Assay 1: TR-FRET inhibition of p53-MDM2 interaction
Assay type: binding
Settings: 1.25 nM MDM2-biotinylated, 10 nM Cy5-p53 peptide
One number for each entry, as −log10 of the molar value.

Worked examples, 6 compounds total:
CCn1cc(N2C(=O)Nc3nn(-c4ccccc4OC)c(C(C)C)c3C2c2ccc(Cl)cc2)cc(Cl)c1=O (stereo not shown) [Example 14] = 8.82
CCn1cc(N2C(=O)Nc3nn(-c4ccccc4OC)c(C(C)C)c3C2c2ccc(Cl)cc2C)cc(Cl)c1=O (stereo not shown) [Example 21] = 8.85
Cc1cc(Cl)ccc1[C@@H]1c2c(nn(Cc3ccccc3)c2C(C)C)NC(=O)N1c1cccc(Cl)c1F [Example 3] = 6.84
COc1ccccc1-n1nc2c(c1C(C)C)C(c1ccc(Cl)cc1C)N(c1cccc(Cl)c1F)C(=O)N2 (stereo not shown) [Example 5] = 8.84
COCCn1cc(N2C(=O)Nc3nn(-c4ccccc4OC)c(C(C)C)c3C2c2ccc(Cl)cc2)cc(Cl)c1=O (stereo not shown) [Example 16] = 8.25
COc1ccccc1-n1nc2c(c1C(C)C)C(c1ccc(Cl)cc1)N(c1cc(Cl)c(=O)n(CCN(C)C)c1)C(=O)N2 (stereo not shown) [Example 22] = 8.57

Quick check: pIC50 of COc1ccccc1-n1nc2c(c1C(C)C)C(c1ccc(Cl)cc1)N(c1ccc(=O)n(C)c1)C(=O)N2 (stereo not shown) [Example 20] ?
8.32
